Kindly state IC50 for each of the entries shown.
Target: integrin α4β7 (RPMI8866 human cells adhering to MAdCAM-1) (Homo sapiens, UniProt P13612+P26010)
Construct: RMP18866 cells, which express integrin α4β7; host or cells: RPMI8866
Sequence (P13612 34-1032): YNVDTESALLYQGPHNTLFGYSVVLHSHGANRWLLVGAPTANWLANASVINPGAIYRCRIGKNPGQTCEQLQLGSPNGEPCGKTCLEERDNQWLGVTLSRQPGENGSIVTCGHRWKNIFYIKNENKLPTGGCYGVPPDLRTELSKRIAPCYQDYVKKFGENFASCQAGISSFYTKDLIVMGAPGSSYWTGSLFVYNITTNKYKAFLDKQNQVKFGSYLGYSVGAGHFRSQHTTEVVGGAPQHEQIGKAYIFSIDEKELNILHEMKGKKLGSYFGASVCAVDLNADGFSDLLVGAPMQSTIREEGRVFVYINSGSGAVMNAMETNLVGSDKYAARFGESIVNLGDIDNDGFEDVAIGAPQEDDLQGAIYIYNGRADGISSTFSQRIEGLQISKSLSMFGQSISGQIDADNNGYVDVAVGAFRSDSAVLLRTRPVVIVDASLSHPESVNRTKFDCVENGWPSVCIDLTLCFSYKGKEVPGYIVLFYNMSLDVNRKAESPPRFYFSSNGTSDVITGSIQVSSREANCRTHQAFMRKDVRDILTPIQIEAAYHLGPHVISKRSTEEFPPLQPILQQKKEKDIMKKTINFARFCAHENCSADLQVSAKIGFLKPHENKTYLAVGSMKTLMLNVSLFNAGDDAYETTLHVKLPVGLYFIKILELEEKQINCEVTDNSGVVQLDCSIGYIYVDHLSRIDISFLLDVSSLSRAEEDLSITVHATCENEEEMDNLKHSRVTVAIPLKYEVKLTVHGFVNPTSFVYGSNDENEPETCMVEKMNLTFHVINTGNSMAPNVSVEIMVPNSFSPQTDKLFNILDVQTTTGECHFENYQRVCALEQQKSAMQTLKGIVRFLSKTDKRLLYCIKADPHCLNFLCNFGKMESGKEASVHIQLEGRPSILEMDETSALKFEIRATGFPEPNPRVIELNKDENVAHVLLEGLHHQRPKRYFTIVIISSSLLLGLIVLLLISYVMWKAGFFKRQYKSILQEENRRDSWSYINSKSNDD
Sequence (P26010 20-798): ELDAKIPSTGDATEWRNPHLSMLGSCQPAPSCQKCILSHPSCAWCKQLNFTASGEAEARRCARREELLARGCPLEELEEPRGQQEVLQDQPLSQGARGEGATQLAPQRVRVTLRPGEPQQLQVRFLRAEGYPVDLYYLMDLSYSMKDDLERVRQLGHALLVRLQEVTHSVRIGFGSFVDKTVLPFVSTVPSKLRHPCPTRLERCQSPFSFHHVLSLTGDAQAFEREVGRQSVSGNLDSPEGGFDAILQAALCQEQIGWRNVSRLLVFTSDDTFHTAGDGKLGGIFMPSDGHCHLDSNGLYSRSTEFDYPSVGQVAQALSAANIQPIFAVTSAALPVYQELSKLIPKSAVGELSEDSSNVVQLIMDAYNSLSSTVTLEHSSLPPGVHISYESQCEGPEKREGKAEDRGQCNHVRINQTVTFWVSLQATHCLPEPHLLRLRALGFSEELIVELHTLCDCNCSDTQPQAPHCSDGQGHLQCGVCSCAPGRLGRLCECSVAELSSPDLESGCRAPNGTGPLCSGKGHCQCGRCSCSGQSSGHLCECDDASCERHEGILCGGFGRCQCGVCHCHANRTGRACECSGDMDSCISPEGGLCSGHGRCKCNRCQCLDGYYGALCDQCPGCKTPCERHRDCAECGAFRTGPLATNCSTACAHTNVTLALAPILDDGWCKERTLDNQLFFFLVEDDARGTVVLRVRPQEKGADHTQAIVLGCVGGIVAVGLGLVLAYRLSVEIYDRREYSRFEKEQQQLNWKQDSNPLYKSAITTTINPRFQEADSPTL
Experiment: Integrin α4β7-MAdCAM cell adhesion assay (RPMI8866 cells)
Assay type: cell-based
Conditions: RPMI8866 cells adhering to MAdCAM; read-out: RPMI8866 Adhesion α4β7/MAdCAM IC50
Procedure: Integrin α4β7-MAdCAM Cell Adhesion Assay RPMI8866 cells were resuspended at 10 million cells/ml in PBS containing […] and incubated at 37° C. for 30 min in a 50 ml tube. […] The plate was emptied by inverting and blotting on paper towels and washed manually twice with PBS. 100 μl PBS was then added to each well. […] To calculate the dose response, the fluorescence value of control wells not containing cells was subtracted from each test well.
I only need the number, in nM, no unit after it.

Problem: Endpoint output: IC50 of "CC(C)C[C@@H]1NC(=O)[C@H]2Cc3ccccc3CN2C(=O)[C@H](Cc2cccc(CNC(=O)CCCCCC(=O)NCc3cccc(C[C@@H]4NC(=O)[C@@H]5CCCN5[C@H](C(=O)NC(C)(C)C)[C@H](C)NC(=O)[C@H]([C@@H](C)O)NC(=O)[C@H](CC(=O)O)NC(=O)[C@H](CC(C)C)NC(=O)[C@H]5Cc6ccccc6CN5C4=O)c3)c2)NC(=O)[C@@H]2CCCN2[C@H](C(=O)NC(C)(C)C)[C@H](C)NC(=O)[C@H]([C@@H](C)O)NC(=O)[C@H](CC(=O)O)NC1=O" . Value?
Solution: 43

Problem: Now try "CC(C)C[C@@H]1NC(=O)c2ccc(-c3ccc(N4CCN(C(=O)COCC(=O)N5CCN(c6ccc(-c7ccc8cc7CNC(=O)[C@@H]7CCCN7[C@H](C(=O)NC(C)(C)C)[C@H](C)NC(=O)[C@H]([C@@H](C)O)NC(=O)[C@H](CC(=O)O)NC(=O)[C@H](CC(C)C)NC8=O)cc6)CC5)CC4)cc3)c(c2)CNC(=O)[C@@H]2CCCN2[C@H](C(=O)NC(C)(C)C)[C@H](C)NC(=O)[C@H]([C@@H](C)O)NC(=O)[C@H](CC(=O)O)NC1=O" .
Solution: 13

Problem: Now try "CC(C)C[C@@H]1NC(=O)c2ccc(-c3ccc(N4CCN(C(=O)c5cccc(C(=O)N6CCN(c7ccc(-c8ccc9cc8CNC(=O)[C@@H]8CCCN8[C@H](C(=O)NC(C)(C)C)[C@H](C)NC(=O)[C@H]([C@@H](C)O)NC(=O)[C@H](CC(=O)O)NC(=O)[C@H](CC(C)C)NC9=O)cc7)CC6)c5)CC4)cc3)c(c2)CNC(=O)[C@@H]2CCCN2[C@H](C(=O)NC(C)(C)C)[C@H](C)NC(=O)[C@H]([C@@H](C)O)NC(=O)[C@H](CC(=O)O)NC1=O" .
Solution: 25

Problem: Now try "CC(C)C[C@@H]1NC(=O)c2ccc(-c3ccc(N4CCN(C(=O)CCCC(=O)N5CCN(c6ccc(-c7ccc8cc7CNC(=O)[C@@H]7CCCN7[C@H](C(=O)NC(C)(C)C)[C@H](C)NC(=O)[C@H]([C@@H](C)O)NC(=O)[C@H](CC(=O)O)NC(=O)[C@H](CC(C)C)NC8=O)cc6)CC5)CC4)cc3)c(c2)CNC(=O)[C@@H]2CCCN2[C@H](C(=O)NC(C)(C)C)[C@H](C)NC(=O)[C@H]([C@@H](C)O)NC(=O)[C@H](CC(=O)O)NC1=O" .
Solution: 30

Problem: Now try "CC(C)C[C@@H]1NC(=O)c2ccc(-c3ccc(N4CCN(C(=O)CCCCCCC(=O)N5CCN(c6ccc(-c7ccc8cc7CNC(=O)[C@@H]7CCCN7[C@H](C(=O)NC(C)(C)C)[C@H](C)NC(=O)[C@H]([C@@H](C)O)NC(=O)[C@H](CC(=O)O)NC(=O)[C@H](CC(C)C)NC8=O)cc6)CC5)CC4)cc3)c(c2)CNC(=O)[C@@H]2CCCN2[C@H](C(=O)NC(C)(C)C)[C@H](C)NC(=O)[C@H]([C@@H](C)O)NC(=O)[C@H](CC(=O)O)NC1=O" .
Solution: 65

Source of measurements: patent US11713338B2
